measurement-target: T1, CD137-hisFc fusion protein (Sino Biological Cat 10041-H03H) (human, UniProt Q07011 24-186)
T1 construct: Bought; also called recombinant human CD137 (fused with human Fc and His tag); not shown: His tag and human Fc
assay: BLI Octet, Fab
pKd: −log10 of the molar value.
# maps each entry to its pKd

>  <binder>
Fab 5404 (Fab, V domains shown, Fab from E. coli; also called VH34/VL34) VH: EVQLVESGGGLVQPGGSLRLSCAASGYSISSGYHWAWIRQAPGKGLEWIGEIYHSGSTYYSPSLKSRVTISRDNSKNTLYLQLNSLRAEDTAVYYCARSPYYYGVFDYWGQGTLVTVSS VL: DIQLTQSPSSLSASVGDRVTITCSASSRVGSVYWYQQKPGKAPKLLIYDASNLETGVPSRFSGSGSGTDFTLTISSLQPEDFATYYCQQYTHDPVTFGQGTKVEIKR

>  <pKd>
8.48

$$$$
>  <binder>
Fab 5300 (Fab, V domains shown, Fab from E. coli; also called VH12/VL12) VH: EVQLVESGGGLVQPGGSLRLSCAASGYTFSNYWIHWVRQAPGKGLEWVSYISGDGDTTYYADSVKGRFTISRDNSKNTLYLQLNSLRAEDTAVYYCAREGSTTVAGDWFAYWGQGTLVTVSS VL: DIQLTQSPSSLSASVGDRVTITCRASQGIGSFLGWYQQKPGKAPKLLIYDASSLESGVPSRFSGSGSGTDFTLTISSLQPEDFATYYCQQYYSLVTFGQGTKVEIKR

>  <pKd>
7.82

$$$$

Data provenance is patent US20190055314A1.
